From: patent US10654802B2

- Study target: Nox4 (Homo sapiens, UniProt Q9NPH5)
- Construct: expressed in transfected cells
- Assay details: Inhibition of Nox4-dependent H2O2 production in HEK/Nox4 cells, Amplex Red assay
- Assay type: cell-based
- Condition parameters: 1 μM final concentration, 1 h, HEK/Nox4 cells; DMSO vehicle = 1.000; n = 3-10; read-out: H2O2 production relative to vehicle control, Mean
Quantity name: remaining activity at 1 µM (%)
Numbers only, in %.

Use these answered entries as a reference point.
CC(CNS(=O)(=O)c1ccc(Oc2ccccc2)cc1)N1CCc2ccccc21 (stereo not drawn) [UANOX071] ... 90.8
O=S(=O)(c1ccc(F)cc1)N1CCN(CCN2CCc3ccccc32)CC1 [UANOX064] ... 86.3
CN(C)S(=O)(=O)NCCN1CCc2ccccc21 [UANOX003] ... 101
COc1ccc(S(=O)(=O)NCC(C)(C)N2CCc3ccccc32)cc1 [UANOX089] ... 101
CC(CNS(=O)(=O)N(C)C)N1CCc2ccccc21 (stereo not drawn) [UANOX007] ... 103
CC(C)(CNS(=O)(=O)c1ccc(F)c(F)c1)N1CCc2ccccc21 [UANOX087] ... 99.7

State recorded remaining activity at 1 µM for all listed molecules.
1. CC(C)(CNS(=O)(=O)c1ccc(OC(F)(F)F)cc1)N1CCc2ccccc21 [UANOX090]
2. CC(C)(CNS(=O)(=O)c1ccc(Oc2ccc(C(F)(F)F)cn2)cc1)N1CCc2ccccc21 [UANOX088]
3. CC(CNC(=O)c1csc(-c2ccc(C(F)(F)F)cc2)n1)N1CCc2ccccc21 (stereo not drawn) [UANOX056]
4. CCN(CC)C(=O)NCCN1CCc2ccccc21 [UANOX002]
5. CC(CNS(=O)(=O)c1ccc(C#N)cc1)N1CCc2ccccc21 (stereo not drawn) [UANOX073]
6. O=S(=O)(NCCN1CCc2ccccc21)N1CCCCC1 [UANOX013]
7. O=S(=O)(NCCN1CCc2ccccc21)N1CCCC1 [UANOX004]

[reply]
[104, 102, 95.9, 98.6, 94.2, 101, 99.4]

Please go through the list and note remaining activity at 1 µM for each molecule.
1. CCN(CC)S(=O)(=O)N1CCN(CC(=O)N2CCc3ccccc32)CC1 [UANOX025]
2. COc1ccc(S(=O)(=O)NCC(C)N2CCc3ccccc32)cc1 (stereo not drawn) [UANOX034]
3. CC(C)(CNS(=O)(=O)c1ccc(C(F)(F)F)cc1)N1CCc2ccccc21 [UANOX084]

[reply]
[107, 95.9, 90.3]

Need remaining activity at 1 µM for each of these molecules.
1. CN1CCN(C(=O)NCCN2CCc3ccccc32)CC1 [UANOX011]
2. CC(CNC(=O)c1csc(-c2ccncc2)n1)N1CCc2ccccc21 (stereo not drawn) [UANOX033]
3. CC(CNS(=O)(=O)c1ccc(OC(F)(F)F)cc1)N1CCc2ccccc21 (stereo not drawn) [UANOX049]

[reply]
1: 98; 2: 100; 3: 87.1

Quick batch: remaining activity at 1 µM for everything below.
1. O=C(NCCN1CCc2ccccc21)N1CCCC1 [UANOX021]
2. CCN(CC)S(=O)(=O)NCCN1CCc2ccccc21 [UANOX001]

[reply]
74.2
99.5

###

- Study target: Nox4 (Homo sapiens)
- Construct: expressed in transfected cells
- Assay details: Inhibition of Nox4-dependent H2O2 production in HEK/Nox4 cells, Amplex Red assay
- Format: cell-based
- Condition parameters: 10 μM final concentration, 1 h, HEK/Nox4 cells; DMSO vehicle = 1.000; n = 3-10; read-out: H2O2 production relative to vehicle control, Mean
# note: boundary value 90% maps to NO; remaining activity at 10 µM below it maps to YES

CC(CNS(=O)(=O)c1ccc(Oc2ccccc2)cc1)N1CCc2ccccc21 (centres unmarked) [UANOX071] ... YES
O=C(CCN1CCN(S(=O)(=O)N2CCOCC2)CC1)N1CCc2ccccc21 [UANOX030] ... NO
COc1ccc(S(=O)(=O)NCC(C)(C)N2CCc3ccccc32)cc1 [UANOX089] ... YES
CC(CNS(=O)(=O)c1ccc(Oc2ccc(C(F)(F)F)cn2)cc1)N1CCc2ccccc21 (centres unmarked) [UANOX070] ... YES
CCN(CC)S(=O)(=O)N1CCN(CCC(=O)N2CCc3ccccc32)CC1 [UANOX029] ... NO

[ask] A record lists CC(C)(CNS(=O)(=O)c1ccc(F)cc1)N1CCc2ccccc21 [UANOX086] . Is its remaining activity at 10 µM below 90%?
[reply] YES

[ask] Is 90% strictly greater than the compound's reported remaining activity at 10 µM? compound: CN(C)S(=O)(=O)NCCN1CCc2ccccc21 [UANOX003]
[reply] NO

[ask] remaining activity at 10 µM under 90%? Item: CC(CNC(=O)N1CCN(C)CC1)N1CCc2ccccc21 (centres unmarked) [UANOX019]
[reply] YES

[ask] Does the reported remaining activity at 10 µM of the following compound sit strictly below 90%? CC(C)(CNS(=O)(=O)c1ccc(Oc2ccc(C(F)(F)F)cn2)cc1)N1CCc2ccccc21 [UANOX088]
[reply] YES

[ask] Does the reported remaining activity at 10 µM of CCN(CC)S(=O)(=O)NCC(C)N1CCc2cc(-c3cccc(OC)c3)ccc21 (centres unmarked) [UANOX036] stay below 90%?
[reply] YES

[ask] Regarding O=C(CCN1CCN(c2ncccn2)CC1)N1CCc2ccccc21 [UANOX022] , kindly confirm whether its remaining activity at 10 µM is beneath 90%.
[reply] NO

[ask] Determine if CC(C)(CNS(=O)(=O)c1ccc(F)c(F)c1)N1CCc2ccccc21 [UANOX087] shows remaining activity at 10 µM strictly lower than 90%.
[reply] YES

[ask] Please state whether remaining activity at 10 µM is below 90% for O=S(=O)(NCCN1CCc2ccccc21)c1ccc(F)c(F)c1 [UANOX081]
[reply] YES

[ask] Lab note: remaining activity at 10 µM threshold 90%. Does this compound come in strictly under it? COc1cccc(-c2ccc3c(c2)CCN3C(C)CNS(=O)(=O)N2CCN(C)CC2)c1 (centres unmarked) [UANOX0254]
[reply] YES

[ask] Determine if O=S(=O)(NCCN1CCc2ccccc21)c1ccc(C(F)(F)F)cc1 [UANOX075] shows remaining activity at 10 µM strictly lower than 90%.
[reply] YES

[ask] Consider O=C(CN1CCN(S(=O)(=O)N2CCCCC2)CC1)N1CCc2ccccc21 [UANOX027] . Does its remaining activity at 10 µM lie strictly below 90%?
[reply] NO

[ask] Lab note: confirm whether the reported remaining activity at 10 µM for this compound is below 90%, equality not counting. compound: CC(CNC(=O)N1CCCC1)N1CCc2ccccc21 (centres unmarked) [UANOX020]
[reply] YES

[ask] Quick check: remaining activity at 10 µM of COc1ccc(-c2nc(C(=O)NCC(C)N3CCc4ccccc43)cs2)cc1 (centres unmarked) [UANOX054] under 90%?
[reply] YES

[ask] State whether 90% exceeds remaining activity at 10 µM recorded for CCN(CC)S(=O)(=O)Nc1ccc(N2CCc3ccccc32)cc1 [UANOX038] .
[reply] YES

[ask] Strictly below 90% in remaining activity at 10 µM? CC(CNC(=O)c1csc(-c2ccncc2)n1)N1CCc2ccccc21 (centres unmarked) [UANOX033]
[reply] YES

###

- Study target: Nox4 (Homo sapiens, UniProt Q9NPH5)
- Construct: expressed in transfected cells
- Assay details: Inhibition of Nox4-dependent H2O2 production in HEK/Nox4 cells, Amplex Red assay
- Assay type: cell-based
- Condition parameters: 5 μM final concentration, 1 h, HEK/Nox4 cells; DMSO vehicle = 1.000; n = 3-10; read-out: H2O2 production relative to vehicle control, Mean
So I've got a bunch of molecules here, and I need their remaining activity at 5 µM values.
Numbers only, in %.

Consider the reported remaining activity at 5 µM for these molecules:
CC(CNS(=O)(=O)c1ccc(Oc2ccc(C(F)(F)F)cn2)cc1)N1CCc2ccccc21 (centres unmarked) ... 77.9
CC(CNC(=O)N1CCN(C)CC1)N1CCc2ccccc21 (centres unmarked) ... 81.4
CCN(CC)S(=O)(=O)Nc1ccc(N2CCc3ccccc32)cc1 ... 80
CC(CNS(=O)(=O)c1ccc(OC(F)(F)F)cc1)N1CCc2ccccc21 (centres unmarked) ... 78.4

From here, focus on the item given below.
[ask] Nox4 (Homo sapiens, UniProt Q9NPH5) / remaining activity at 5 µM / CC(CNS(=O)(=O)N1CCN(C)CC1)N1CCc2ccccc21 (centres unmarked) : value?
[reply] 79.3

###

- Study target: Nox4 (Homo sapiens)
- Construct: expressed in transfected cells
- Sequence (Q9NPH5 1-578): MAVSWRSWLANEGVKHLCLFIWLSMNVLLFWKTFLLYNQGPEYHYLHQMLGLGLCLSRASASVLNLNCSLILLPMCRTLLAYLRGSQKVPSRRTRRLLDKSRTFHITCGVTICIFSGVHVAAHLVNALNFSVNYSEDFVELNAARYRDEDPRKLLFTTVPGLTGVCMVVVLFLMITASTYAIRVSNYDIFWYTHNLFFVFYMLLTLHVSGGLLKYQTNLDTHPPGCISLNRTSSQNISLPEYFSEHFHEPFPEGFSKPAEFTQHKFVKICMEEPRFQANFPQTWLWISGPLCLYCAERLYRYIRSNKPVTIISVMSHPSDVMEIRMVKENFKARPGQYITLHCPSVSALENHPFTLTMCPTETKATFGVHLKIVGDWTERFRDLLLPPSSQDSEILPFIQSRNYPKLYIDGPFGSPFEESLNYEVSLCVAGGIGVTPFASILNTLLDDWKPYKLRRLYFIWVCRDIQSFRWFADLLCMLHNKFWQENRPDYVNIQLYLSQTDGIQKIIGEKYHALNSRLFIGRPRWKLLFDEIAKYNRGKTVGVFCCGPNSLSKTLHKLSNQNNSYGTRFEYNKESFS
- Sequence (P13498 1-195 partner): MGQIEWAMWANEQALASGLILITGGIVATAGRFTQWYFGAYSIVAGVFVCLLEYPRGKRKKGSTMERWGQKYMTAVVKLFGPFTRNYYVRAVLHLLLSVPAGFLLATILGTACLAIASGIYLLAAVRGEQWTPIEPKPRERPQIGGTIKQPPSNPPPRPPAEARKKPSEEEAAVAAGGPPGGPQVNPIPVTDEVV
- Assay details: Inhibition of Nox4-dependent H2O2 production in HEK/Nox4 cells, Amplex Red assay
- Type: cell-based
- Condition parameters: 10 μM final concentration, 1 h, HEK/Nox4 cells; DMSO vehicle = 1.000; n = 3-10; read-out: H2O2 production relative to vehicle control, Mean
Simple rule here: remaining activity at 10 µM less than 90% is met, otherwise not met.

[ask] Record c1ccc2c(c1)CCN2CCN1CCCCC1 [UANOX018, 1-(2-(piperidin-1-yl)ethyl)indoline] : is its remaining activity at 10 µM strictly below 90%?
[reply] not met

[ask] Lab log: compare recorded remaining activity at 10 µM with 90%; is it strictly lower for O=S(=O)(NCCN1CCc2ccccc21)N1CCOCC1 [UANOX012] ?
[reply] met

[ask] Decide: remaining activity at 10 µM of O=S(=O)(NCCN1CCc2ccccc21)c1ccc(Oc2ccccc2)cc1 [UANOX079] strictly below 90%?
[reply] met
